- Test system: West Nile virus
- protocol_summary: Antiviral activity against West Nile virus 13-104 infected in african green monkey Vero cells
- Format: functional, organism-based
- measurement_conditions: 13-104, Vero
readout: EC50 (µM)
Give a bare numeral; the unit µM is implied.

Kindly note the recorded EC50 for "CCOC(=O)c1c(CSc2ccccc2)n(C)c2cc(Br)c(O)c(CN(C)C)c12" , which is 10.6

---

Reported CC50 at 48 h is given for each of the following compounds.
- protocol_summary: Cytotoxicity against African green monkey Vero E6 cells assessed as cell growth inhibition incubated for 48 hrs by CCK8 assay
- Format: toxicity, cell-based, Vero C1008
- measurement_conditions: chlorocebus sabaeus

CCN(CC)CCCC(C)Nc1ccnc2cc(Cl)ccc12 (configuration not stated) [CHLOROQUINE]: > 100 µM

We now examine a further compound.
Kindly note the recorded CC50 at 48 h for "NC(=O)c1nc(F)cnc1O" , which is > 400 µM

---

- protocol_summary: Selectivity ratio of CC50 for African green monkey Vero E6 cells to EC50 for Severe acute respiratory syndrome coronavirus […]
- Assay type: toxicity, Vero C1008
- measurement_conditions: read-out: Ratio CC50/EC50
readout: selectivity ratio

Kindly note the recorded selectivity ratio for "O=C[C@H](C[C@@H]1CCNC1=O)NC(=O)[C@H](Cc1cccc(F)c1)NC(=O)c1cc2ccccc2[nH]1" , which is > 139

---

Reported selectivity ratio is given for each of the following compounds.
- protocol_summary: Selectivity ratio of CC50 for African green monkey Vero E6 cells to EC50 for Severe acute respiratory syndrome coronavirus infected in African green monkey Vero E6 cells
- Format: toxicity, Vero C1008
- measurement_conditions: read-out: Ratio CC50/EC50

NC(=O)c1nc(F)cnc1O: > 6.46

We now examine a further compound.
Kindly note the recorded selectivity ratio for CCN(CC)CCCC(C)Nc1ccnc2cc(Cl)ccc12 (configuration not stated) [CHLOROQUINE] , which is > 88.5
